Measured IC50 (M); blocking of PS-LILRB2 interaction of individual entries
target: LILRB2-chimeric reporter receptor on reporter cells (UniProt Q8N423 22-460); experiment: cell-based or functional assay
Sequence (Q8N423 22-460, change not shown): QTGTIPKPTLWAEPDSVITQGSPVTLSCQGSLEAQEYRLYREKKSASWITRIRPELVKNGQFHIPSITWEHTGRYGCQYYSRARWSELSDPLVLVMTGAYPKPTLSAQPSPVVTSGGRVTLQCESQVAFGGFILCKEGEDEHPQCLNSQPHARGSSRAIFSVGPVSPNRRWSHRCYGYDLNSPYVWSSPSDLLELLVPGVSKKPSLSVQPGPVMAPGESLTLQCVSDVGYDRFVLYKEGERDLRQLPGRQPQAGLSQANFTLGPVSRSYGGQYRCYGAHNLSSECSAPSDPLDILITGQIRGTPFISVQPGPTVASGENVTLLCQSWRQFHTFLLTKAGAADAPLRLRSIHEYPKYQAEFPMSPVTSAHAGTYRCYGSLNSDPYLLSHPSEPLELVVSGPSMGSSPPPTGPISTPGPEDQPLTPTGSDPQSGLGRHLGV
State just the number; it will be interpreted in M.

Exercise: What does the data say about its IC50 (M); blocking of PS-LILRB2 interaction? Entry: NeuB2-29 (antibody, V domains shown, also called Ab29; NewuB2-29) VH: QVQLVETGGGVVQPGRSLRLSCAASGFTFSDYAMHWVRQAPGKGLEWVTLISYDGSQKYYADSVKGRFTISRDDSKNTVDLQMNSLKAEDTAVYYCAKFPSLNDNVGFDVWGQGTMVTVSS VL: QSVLTQPPSVSGAPRERVTISCSGSTSNIENNAVNWYQQLPGKAPKLLIYYDDLVPSGVSDRFSGSKSGTSASLAISGLQSGDEAYYYCAVWDDSLNGPVFGGGTKVTVL
Key: 1.42e-10

Exercise: What does the data say about its IC50 (M); blocking of PS-LILRB2 interaction? Entry: NeuB2-93 (antibody, V domains shown, also called Ab93; 93-HC/93-LC) VH: QVQLMQSGAEVKKPGSSVKVSCKASGGRFSSNVMSWVRQAPGQGLEWMGGIIPIFGTPKYAQKFQGRVTITADKSTSTAYMELSSLRSEDTAVYYCASGSTPFDAFDIWGQGTMVTVSS VL: QPVLTQPASVSGSPGQSITISCTGTSSDVGGYNYVSWYQQHPGKAPKLMIYEVSNRPSGVSNRFSGSKSGNTASLTISGLQAEDEADYYCSSYTSSSTPWVFGGGTKVTVL
Key: 4.45e-10

Exercise: What does the data say about its IC50 (M); blocking of PS-LILRB2 interaction? Entry: NeuB2-40 (antibody, V domains shown, also called Ab40; 40-HC/40-LC) VH: QVQLVQSGAEVKKPGASVKVSCKASGYTFTNYGISWVRQAPGQGLEWMGWISGDAGDTKFAQKFQGRVTMTTDTSTTTTYMELRSLRSDDTAVYYCARDGEYIPMFRGFDNYYGLDVWGQGTTVTVSS VL: QPVLTQPPSVSEAPRQRVTISCSGSSSNIGKNAVNWYQQFPGKAPKLLIYYDDLLPSGVSDRFSGSRSGTSASLAISGLQSEDEADYYCAAWDDRLKGYVFGTGTQLTVL
Key: 3.54e-10

Exercise: What does the data say about its IC50 (M); blocking of PS-LILRB2 interaction? Entry: NeuB2-55 (antibody, V domains shown, also called Ab55; 55-HC/55-LC) VH: EVQLVQSGAEVKKPGSSVKVSCKASGGTFSSYAISWVRQAPGQGLEWMGGIIPIFGTANYAQKFQGRVTITADESTSTAYMELSSLRSEDTAVYYCARGVDQVDYWGQGTLVTVSS VL: QAVVTQPASVSGSPGQSITISCTGTSSDVGGYNYVSWYQQHPGKAPKLMIYDVSNRPSGVSNRFSGSKSGNTASLTISGLQAEDEADYYCSSYTSSSTPYVFGTGTKVTVL
Key: 3.35e-10
